System: Coxsackie virus B1
Experimental protocol: Anti-Coxsackie virus activity, lethal infection in mice
Condition description: Mus musculus, po, 504 h, read-out: Survival
Quick list: responders at 20 mg/kg per entry.
// units = %; emit number, no label

The following compounds have reported results that may help.
>>> value_measured("COc1cc(OC(=O)C(C)C)c2c(=O)c(OC)c(-c3ccc(OC(=O)C(C)(C)C)c(OC)c3)oc2c1")
40
>>> value_measured("CCOC(=O)Oc1ccc(-c2oc3cc(OC)cc(OC(=O)OCC)c3c(=O)c2OC)cc1OC")
30
>>> value_measured("COc1cc(OC(C)=O)c2c(=O)c(OC)c(-c3ccc(OC(C)=O)c(OC)c3)oc2c1")
20

-- ask Identify the reported responders at 20 mg/kg for the following entry. COc1cc(OC(=O)c2cccnc2)c2c(=O)c(OC)c(-c3ccc(OC(=O)c4cccnc4)c(OC)c3)oc2c1
-- reply 30

-- ask In one line, give reported responders at 20 mg/kg of the entry COc1cc(O)c2c(=O)c(OC)c(-c3ccc(O)c(OC)c3)oc2c1 [4',5-dihydroxy-3,3',7-trimethoxyflavone] .
-- reply 10

====

As shown below, each of these compounds has a reported LD50 at 504 h value.
Experimental protocol: acute toxicity in mice
Condition description: mouse, in vivo, ip; single dose i.p., dissolved in dimethyl sulfoxide, day 21; read-out: LD50 i.p.

>>> value_measured("COc1cc(O)c2c(=O)c(OC)c(-c3ccc(O)c(OC)c3)oc2c1 [4',5-dihydroxy-3,3',7-trimethoxyflavone]")
"> 1000 mg/kg"
>>> value_measured("COc1cc(O)c2c(=O)c(OC)c(-c3ccc(OC(=O)[C@@H](N)CCCCN)c(OC)c3)oc2c1")
"1000 mg/kg"
>>> value_measured("COc1cc(O)c2c(=O)c(OC)c(-c3ccc(OC(=O)[C@@H](N)CCC(N)=O)c(OC)c3)oc2c1")
"> 1000 mg/kg"
>>> value_measured("COc1cc(OC(C)=O)c2c(=O)c(OC)c(-c3ccc(OC(C)=O)c(OC)c3)oc2c1")
"> 1000 mg/kg"

Consider the record given below.
-- ask Give the reported value of LD50 at 504 h for this record: COc1cc(O)c2c(=O)c(OC)c(-c3ccc(OC(=O)[C@H](C)N)c(OC)c3)oc2c1
-- reply > 1000 mg/kg

====

Tested on: Coxsackie virus B1
Experimental protocol: Inhibition of viral cytopathogenic effect in HeLa cells (Coxsackie virus B1)
Format: cell-based
Condition description: HeLa, 24 h, read-out: IC50 Coxsackie virus B1
Test readout: IC50

>>> value_measured("COc1ccc(-c2oc3cc(O)cc(O)c3c(=O)c2OC)cc1 [5,7-dihydroxy-3,4'-dimethoxyflavone]")
"> 4 µg/mL"
>>> value_measured("COc1cc(O)c2c(=O)c(OC)c(-c3ccc(O)cc3)oc2c1 [4',5-dihydroxy-3,7-dimethoxyflavone]")
"0.1 µg/mL"
>>> value_measured("COc1cc(O)c2c(=O)c(OC)c(-c3ccc(O)c(OC)c3)oc2c1 [4',5-dihydroxy-3,3',7-trimethoxyflavone]")
"0.1 to 0.2 µg/mL"
>>> value_measured("COc1cc(OC(C)=O)c2c(=O)c(OC)c(-c3ccc(OC(C)=O)c(OC)c3)oc2c1")
"0.1 to 0.2 µg/mL"
>>> value_measured("COc1cc(O)c2c(=O)c(OC)c(-c3ccc(OC(=O)[C@@H](N)CCCCN)c(OC)c3)oc2c1")
"0.25 µg/mL"

-- ask Indicate its recorded IC50; the compound in question is COc1cc(O)c2c(=O)c(OC)c(-c3ccc(OC(=O)[C@H](C)N)c(OC)c3)oc2c1
-- reply 0.25 to 0.5 µg/mL

-- ask Recall and state the measured IC50 for COc1cc(O)c2c(=O)c(OC)c(-c3ccc(OC(=O)[C@@H](N)CCC(N)=O)c(OC)c3)oc2c1 .
-- reply 0.25 to 0.5 µg/mL
